- TEST: Cytotoxicity against C57BL/6J mouse peritoneal macrophages assessed as reduction of cell viability at 1 uM incubated for 24 hrs in presence of LPS by MTT assay
- Assay type: cell-based, Peritoneal macrophage

{"MOLECULE": "C[C@@H]1C[C@H]2[C@@H]3CCC4=CC(=O)C=C[C@]4(C)[C@@]3(F)[C@@H](O)C[C@]2(C)[C@@]1(O)C(=O)CO [DEXAMETHASONE]", "inhibition at 24 h, 1 µM": "17%"}

====

Entries and their inhibition at 24 h, 10 µM
- TEST: Cytotoxicity against C57BL/6J mouse peritoneal macrophages assessed as reduction of cell viability at 10 uM incubated for 24 hrs in presence of LPS by MTT assay
- Type: cell-based, Peritoneal macrophage

{"COMPOUND_STRUCTURE": "COC1=C[C@@H]2[C@@H]3Cc4c(C=O)cc(OC)c(OC(=O)/C=C/c5ccccc5)c4[C@]2(CCN3C)CC1=O", "UNIT_STRING": "%", "inhibition at 24 h, 10 µM": 0.6}
{"COMPOUND_STRUCTURE": "COc1ccc2c(c1OC(C)=O)[C@@]13CCN(C)[C@@H](C2)[C@H]1C[C@@H](OC)C(=O)C3", "UNIT_STRING": "%", "inhibition at 24 h, 10 µM": 3.2}
{"COMPOUND_STRUCTURE": "COC1=C[C@@H]2[C@@H]3Cc4c(CO)cc(OC)c(O)c4[C@]2(CCN3C)CC1=O", "UNIT_STRING": "%", "inhibition at 24 h, 10 µM": 1.2}
{"COMPOUND_STRUCTURE": "COC1=C[C@@H]2[C@@H]3Cc4c(COC(=O)/C=C/c5ccccc5)cc(OC)c(OC(=O)/C=C/c5ccccc5)c4[C@]2(CCN3C)CC1=O", "UNIT_STRING": "%", "inhibition at 24 h, 10 µM": 6.4}
{"COMPOUND_STRUCTURE": "COc1ccc2c(c1O)[C@@]13CCN(C)[C@@H](C2)[C@H]1C[C@@H](OC)C(=O)C3", "UNIT_STRING": "%", "inhibition at 24 h, 10 µM": 6.5}
{"COMPOUND_STRUCTURE": "C=CCCCCCCCCC(=O)OCc1cc(OC)c(OC(=O)CCCCCCCCC=C)c2c1C[C@H]1[C@H]3C=C(OC)C(=O)C[C@@]23CCN1C", "UNIT_STRING": "%", "inhibition at 24 h, 10 µM": 9.3}
{"COMPOUND_STRUCTURE": "CCCCCCCC/C=C/CCCCCCCCCCCC(=O)Oc1c(OC)cc(C=O)c2c1[C@@]13CCN(C)[C@@H](C2)[C@H]1C=C(OC)C(=O)C3", "UNIT_STRING": "%", "inhibition at 24 h, 10 µM": 0.5}
{"COMPOUND_STRUCTURE": "C=CCCCCCCCCC(=O)Oc1c(OC)ccc2c1[C@@]13CCN(C)[C@@H](C2)[C@H]1C=C(OC)C(=O)C3", "UNIT_STRING": "%", "inhibition at 24 h, 10 µM": 8.8}
{"COMPOUND_STRUCTURE": "CCCCCCCCCCCCCC(=O)Oc1c(OC)cc(C=O)c2c1[C@@]13CCN(C)[C@@H](C2)[C@H]1C=C(OC)C(=O)C3", "UNIT_STRING": "%", "inhibition at 24 h, 10 µM": 0.5}
{"COMPOUND_STRUCTURE": "COC1=C[C@@H]2[C@@H]3Cc4ccc(OC)c(OC(=O)c5cccnc5)c4[C@]2(CCN3C)CC1=O", "UNIT_STRING": "%", "inhibition at 24 h, 10 µM": 0.8}
{"COMPOUND_STRUCTURE": "CCCCCCCCCCCCCCCC(=O)Oc1c(OC)ccc2c1[C@@]13CCN(C)[C@@H](C2)[C@H]1C[C@@H](OC)C(=O)C3", "UNIT_STRING": "%", "inhibition at 24 h, 10 µM": 1.7}
{"COMPOUND_STRUCTURE": "CCCCCCCCCCCCCC(=O)Oc1c(OC)ccc2c1[C@@]13CCN(C)[C@@H](C2)[C@H]1C[C@@H](OC)C(=O)C3", "UNIT_STRING": "%", "inhibition at 24 h, 10 µM": 4.6}
{"COMPOUND_STRUCTURE": "CCCCCCCCCCCCCC(=O)OCc1cc(OC)c(OC(=O)CCCCCCCCCCCCC)c2c1C[C@H]1[C@H]3C=C(OC)C(=O)C[C@@]23CCN1C", "UNIT_STRING": "%", "inhibition at 24 h, 10 µM": 2.5}
{"COMPOUND_STRUCTURE": "COC1=C[C@@H]2[C@@H]3Cc4c(C=O)cc(OC)c(OC(C)=O)c4[C@]2(CCN3C)CC1=O", "UNIT_STRING": "%", "inhibition at 24 h, 10 µM": 0.2}
